- Measured On: T1, Histidine-tagged human PD-1 protein (hPD-1-His) (human, UniProt Q15116 25-170, limits assumed)
- T1 construct: Soluble analyte in SPR; not shown: histidine tag
- Assay Method Text: SPR (Biacore T200), antibody captured on Protein A chip, hPD-1-His analyte, 1:1 fit
Observed Property: kon (M⁻¹ s⁻¹)
Number only, in M⁻¹ s⁻¹; omit the unit.

INSERT INTO results (binder, observed_property, unit_symbol, result_number) VALUES
  ('3F1-H2K3-IgG4-S228P (antibody, V domains shown, Humanized; human IgG4 constant domains with S228P (EU numbering)) VH: QVQLQQSGAEVKKPGASVKMSCKASGYTFTSYWMHWVKQRPGQGLEWIGYINPSTGYTEYNQKFKDRATLTADKSTSTAYMELSSLRSEDTAVYYCARGVRYYFDYWGQGTLVTVSS VL: DIVMTQSPSSLAVSAGERVTMSCKSSQSLLNSRTRKNYLAWYQQKPGQSPKLLIYWASTRESGVPDRFSGSGSGTDFTLTISSVQAEDVAVYYCKQSYNLLTFGQGTKLELK', 'kon', 'M⁻¹ s⁻¹', 4410);

Here's the next entry for you.
Retrieve kon measured for 1A7-H2K2-IgG4-S228P (antibody, V domains shown, Humanized; human IgG4 constant domains with S228P (EU numbering)) VH: EVQLVESGGGLVQPGGSLRLSCAASGFTFSSYSMSWVRQAPGKRLEWVAHISSGGSSTYYPDTVKGRFTISRDNSKNTLYLQMNSLRAEDTAMYYCTRQFYYGSSFWYFDVWGAGTTVTVSS VL: DNVLTQSPATLSVSPGERATLSCKASQSVDFDGDSYMNWYQQKPGQPPRLLIYAASNLESGIPARFSGSGPGTDFTLTISSLEPEDFATYYCQQSNEDPPTFGGGTKVEIK and print it.
48800

Origin of the recorded values: patent US20250034256A1
